meta.source: patent US6541463B1

For each entry below, report its % Inhibition Progesterone Receptor E^−8 value.
System: progesterone receptor
protocolNotes: Progesterone receptor assay: inhibition of [3H]R5020 binding, uterine cytosol
Design: species or system rat
conditionsUsed: Table 4′; E^−8
Give bare numbers, in %.

Prompt: Dear colleague, I am looking for the recorded % Inhibition Progesterone Receptor E^−8 of the following compound: CC1(C)CCC2(CCC3C4CCc5ccccc5C4CCC32C)OC1=O (stereo not drawn) [CS-224]
Response: 2

Prompt: Now this one: CC1(C)CC[C@@]2(CCC3C4CCc5cc(C(N)=O)ccc5C4CCC32C)OC1=O (stereo partly drawn) [EM-1404]
Response: 0

Prompt: And C[C@]12CCC3c4cc([N+](=O)[O-])c(O)cc4CCC3C1CC[C@@]21CCCC(=O)O1 (stereo partly drawn) [EM-1124] ?
Response: 1

Prompt: Ok, now COCCOc1cc2c(cc1C(=O)O)C1CCC3(C)C(CCC34CCC(C)(C)C(=O)O4)C1CC2 (stereo not drawn) [EM-1405]
Response: 0

Prompt: Then this compound: CC1(C)CCC2(CCC3C4CCc5cc(OCCN6CCCCC6)ccc5C4CCC32C)OC1=O (stereo not drawn) [EM-1390-CS]
Response: 0

Below are some compounds; for each one, tell me its % Inhibition Progesterone Receptor E^−8.
1. CC1(C)CCC2(CCC3C4CCc5c(cc(Cl)c(OS(C)(=O)=O)c5Cl)C4CCC32C)OC1=O (stereo not drawn) [EM-1392-CS]
2. CC1(C)CC[C@@]2(CCC3C4CCc5cc(C(=O)O)ccc5C4CC[C@@]32C)OC1=O (stereo partly drawn) [EM-1401]
3. COc1ccc2c(c1)C(=O)CC1C3CCC4(CCC(C)(C)C(=O)O4)C3(C)CCC21O (stereo not drawn) [EM-1386]
4. CC1CCC2(CCC3C4CCc5cc(O)c([N+](=O)[O-])cc5C4CCC32C)OC1=O (stereo not drawn) [EM-1131]
5. CC1CCC2(CCC3C4CCc5cc(O)c([N+](=O)[O-])cc5C4CCC32C)OC1=O (stereo not drawn) [EM-1126]
6. COc1cc2c(cc1C)C1CCC3(C)C(CCC34CCC(C)(C)C(=O)O4)C1CC2 (stereo not drawn) [EM-1412-CS]

Response:
2
0
0
2
5
0
